B1: TPR t1 (parent)
chain: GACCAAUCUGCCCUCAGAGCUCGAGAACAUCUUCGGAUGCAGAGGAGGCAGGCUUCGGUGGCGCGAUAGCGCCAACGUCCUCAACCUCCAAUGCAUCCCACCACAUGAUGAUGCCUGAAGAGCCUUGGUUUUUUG

- Variants of: B1
- ASSAY_METHOD_TEXT: polymerase ribozyme fitness, log enrichment relative to wild type (log ratio); higher = more active; in vitro selection for triplet polymerase activity
Threshold rule: polymerase ribozyme fitness (log ratio) greater than or equal to -2 is y; below that, n.

These recorded examples may help you get a feel for the data.
SEQUENCE_ENTRY	CLASS_NAME
GACCAAUCUGCCCUCAGAGCUCGAGAACAUCUUCGGAUGCAGAGGAGGCAGGCUUCGGUGGCGCGAUAGCGCCAACGUCCUCAACCUCCAAUGCAUCCCCCCACAUGAUUAAGCCUGAAGAGCCUUGGUUUUUUG [A100C G110U U112A]	n
GACCAAUCUGCCCUCAGAGCUCGAGAUCAUCUUCGGAUGCAGAGGCGGCAGGCUUCGGUGGCGCGAUAGCGCCAACGUCCUCAACCUCCAAUGCAUCCCACCACAUGAUGAUGCCCGAAGAGCCUUGGUUUUUUG [A27U A46C U116C]	n
GACCAAUCUGCCCUCAGAGCUCGAGAACAUCUUCGGAUGCAGAGGAGGCAGGAUUCGGUGGCGCGAUAGCGUCAACGUCCUCAACCUCCAAUGCAUCUCACCACAUGAUGAUGCCUGAAGAGUCUUGGUUUUUUG [C53A C72U C98U C123U]	n
GACCAAUCUGCCCUCAGAGCUCGAGAACAUCUUCGGAUGCAGAAGAGGCAAGCUUCGGUGGCUCGAUAGCGCCAACGUCCUCAACCUCCAAUGCAUCCCACCACAUGAUGAUGCCUGAAGAGCCAUGGUUUUUUG [G44A G51A G63U U125A]	n
GACCAAUCUGCCCUCAGAGCUCGAGAACAUCUUCGGAUGCAGAGGAGGCAGGCUUCGGUGGCGCGAUAGCGCCAACGUCCUCAACCUCCAAUGCAUCCCACCACAUGAUGAUGCCUGAAAAGCCUUGGUGUUUUG [G120A U130G]	y

**Query** Is polymerase ribozyme fitness (log ratio) for GACCAAUCUGCCCUCAGAGCUCGAGAACAUCUUCGGAUGCAGAGGAGGCAGGUUUCGGUGGCGCGAUAGCGCCAACGUCCUCAACCUCCAAGGCAUCCCACCACAUGAUGAUGCCUGAAGAGCCUUGGUUUUUUG [C53U U92G] at or above -2?
**Result** n

**Query** Entry GACCAAUCUGCCCUCAGAGCUCGAGAACAUCUUCGGAUGCAGAGGAGGCAGGGUUCGGUGGCGCGAUAGCGGCAACGUCCUCAACCUACAAUGCAUCCCACCACAUGAUGAUGCCUGAAGAGCCUUGGUUUUUUG [C53G C72G C88A] : is its polymerase ribozyme fitness (log ratio) no less than -2?
**Result** y

The reported measurements were obtained from the RNAGym collection of RNA variant scans (doi:10.1073/pnas.2313332121).
